Target: F508delCFTR (Homo sapiens, UniProt P13569, DEL508-508)
Construct: expressed in transfected cells; host or cells: CFBE41o- human lung derived epithelial cell line, doxycycline-induced expression
Sequence (P13569 with tags, fused parts or gaps DEL508-508): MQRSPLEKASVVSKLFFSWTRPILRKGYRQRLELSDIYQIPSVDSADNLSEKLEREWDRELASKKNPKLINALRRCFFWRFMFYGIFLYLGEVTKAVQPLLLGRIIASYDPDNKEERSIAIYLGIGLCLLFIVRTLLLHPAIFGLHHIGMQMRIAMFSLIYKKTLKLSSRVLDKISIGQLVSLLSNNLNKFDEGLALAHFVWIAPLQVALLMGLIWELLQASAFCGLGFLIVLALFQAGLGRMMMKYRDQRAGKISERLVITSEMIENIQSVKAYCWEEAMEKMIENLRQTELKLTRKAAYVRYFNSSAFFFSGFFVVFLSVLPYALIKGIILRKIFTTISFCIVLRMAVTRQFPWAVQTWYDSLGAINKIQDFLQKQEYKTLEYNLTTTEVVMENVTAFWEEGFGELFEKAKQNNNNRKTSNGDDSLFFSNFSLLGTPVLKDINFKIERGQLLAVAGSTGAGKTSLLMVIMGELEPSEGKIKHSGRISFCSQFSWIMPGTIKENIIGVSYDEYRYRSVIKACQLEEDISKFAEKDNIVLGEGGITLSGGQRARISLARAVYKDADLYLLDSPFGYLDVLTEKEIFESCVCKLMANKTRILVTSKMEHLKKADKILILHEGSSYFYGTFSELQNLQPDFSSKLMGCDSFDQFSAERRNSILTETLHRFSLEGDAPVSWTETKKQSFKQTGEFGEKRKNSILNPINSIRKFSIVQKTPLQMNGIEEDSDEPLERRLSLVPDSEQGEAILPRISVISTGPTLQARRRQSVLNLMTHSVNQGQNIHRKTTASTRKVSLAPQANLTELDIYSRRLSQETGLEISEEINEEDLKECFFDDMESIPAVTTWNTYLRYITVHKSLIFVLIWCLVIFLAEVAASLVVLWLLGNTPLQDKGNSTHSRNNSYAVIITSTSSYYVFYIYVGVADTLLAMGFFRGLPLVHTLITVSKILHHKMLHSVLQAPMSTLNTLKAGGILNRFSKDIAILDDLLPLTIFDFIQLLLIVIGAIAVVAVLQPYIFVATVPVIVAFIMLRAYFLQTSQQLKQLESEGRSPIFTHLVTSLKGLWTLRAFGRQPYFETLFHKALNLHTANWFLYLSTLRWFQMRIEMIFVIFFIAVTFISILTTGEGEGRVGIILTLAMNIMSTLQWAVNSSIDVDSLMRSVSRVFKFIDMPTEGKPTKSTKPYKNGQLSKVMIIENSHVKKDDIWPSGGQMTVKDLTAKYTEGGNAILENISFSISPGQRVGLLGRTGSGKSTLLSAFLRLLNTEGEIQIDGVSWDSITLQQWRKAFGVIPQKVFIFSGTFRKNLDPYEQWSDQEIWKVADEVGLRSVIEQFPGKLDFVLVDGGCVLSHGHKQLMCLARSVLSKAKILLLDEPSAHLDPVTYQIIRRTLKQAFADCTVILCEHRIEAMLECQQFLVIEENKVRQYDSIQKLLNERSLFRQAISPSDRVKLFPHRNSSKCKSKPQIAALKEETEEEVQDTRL
Experiment: Cell Surface Expression-Horse Radish Peroxidase (CSE-HRP) assay in CFBE41o-F508delCFTR-HRP cells
Type: cell-based
Settings: with co-corrector 2 μM; CFBE41o-F508delCFTR-HRP cells, 18-24 hours at 33° C.; read-out: EC50 (with co-corrector)
OBSERVATION_TYPE: pEC50
Please keep in mind that pEC50 is minus log10 of the molar concentration; only the number is needed.

SMILES_INPUT | OBSERVATION_TYPE | RESULT_VALUE
COc1ccccc1[C@H]1CO[C@@](C(=O)NS(=O)(=O)c2cccc3nc(C)ccc23)(c2cc(C)ccc2OC)C1 | pEC50 | 6.48

Task item: Name the recorded pEC50 of COc1ccccc1[C@@H]1CO[C@@](C(=O)NS(=O)(=O)c2cccc3nc(N)ccc23)(c2cc(C)ccc2OC)C1 , assay system F508delCFTR (Homo sapiens, UniProt P13569, DEL508-508).
Reply: 6.80

Task item: State, for F508delCFTR (Homo sapiens, UniProt P13569, DEL508-508), measured pEC50 of the compound listed here: COc1ccc(C)cc1[C@@]1(C(=O)NS(=O)(=O)c2cccc3nc(C)ccc23)C[C@H](C)CO1
Reply: 6.17

Task item: Quote F508delCFTR (Homo sapiens, UniProt P13569, DEL508-508) pEC50 for entry COc1ccc(C)cc1[C@]1(C(=O)NS(=O)(=O)c2cccc3nc(C)ccc23)C[C@H](c2ccccc2)CO1 .
Reply: 5.49

Task item: GET pEC50 | system: F508delCFTR (Homo sapiens, UniProt P13569, DEL508-508) | item: CCc1ccc(Oc2ccccc2)c([C@]2(C(=O)NS(=O)(=O)c3cccc4nc(C)ccc34)CCCO2)c1
Reply: 5.94

Task item: Please report the measured pEC50 for COc1ccc(C)cc1[C@@]1(C(=O)NS(=O)(=O)c2cccc3nc(C)ccc23)C[C@@H](C)CO1 tested on F508delCFTR (Homo sapiens, UniProt P13569, DEL508-508).
Reply: 6.14

Task item: Please report pEC50 with F508delCFTR (Homo sapiens, UniProt P13569, DEL508-508) for item COc1ccc([C@H]2CO[C@@](C(=O)NS(=O)(=O)c3cccc4nc(C)ccc34)(c3cc(C)ccc3OC)C2)cc1 .
Reply: 6.36

----------
Target: F508delCFTR (Homo sapiens, UniProt P13569, DEL508-508)
Construct: expressed in transfected cells; host or cells: CFBE41o- human lung derived epithelial cell line, doxycycline-induced expression
Assay: Cell Surface Expression-Horse Radish Peroxidase (CSE-HRP) assay in CFBE41o-F508delCFTR-HRP cells
Format: cell-based
Details: without co-corrector; CFBE41o-F508delCFTR-HRP cells, 18-24 hours at 33° C.; read-out: EC50 (without co-corrector)
Reported pEC50 by item:
Please report pEC50 as the negative decimal logarithm of the molar concentration, giving only the number.

Below: 4 compounds and their reported pEC50.
COMPOUND | pEC50
COc1ccc(C)cc1[C@@]1(C(=O)NS(=O)(=O)c2cccc3nc(C)ccc23)C[C@@H](OC)CO1 [Example 29] | 5.73
COc1ccc(C)cc1[C@]1(C(=O)NS(=O)(=O)c2cccc3nc(C)ccc23)C[C@H](c2ccccc2)CO1 [Example 37] | 5.44
CCOc1ccc(C)cc1[C@]1(C(=O)NS(=O)(=O)c2cccc3nc(C)ccc23)CCCO1 [Example 1] | 5.31
COc1ccc(C)cc1[C@@]1(C(=O)NS(=O)(=O)c2cccc3nc(C)ccc23)C[C@H](OC)CO1 [Example 28] | 5.39

Consider the record given below.
Task item: Give F508delCFTR (Homo sapiens, UniProt P13569, DEL508-508) pEC50 for the following compound: CCc1ccc(Oc2cccnc2OC)c([C@@]2(C(=O)NS(=O)(=O)c3cccc4nc(C)ccc34)CCCO2)c1 [Example 25]
Reply: 5.84
